# Target desc: Substance-K receptor (Homo sapiens, UniProt P21452)
# Sequence (P21452 whole entry): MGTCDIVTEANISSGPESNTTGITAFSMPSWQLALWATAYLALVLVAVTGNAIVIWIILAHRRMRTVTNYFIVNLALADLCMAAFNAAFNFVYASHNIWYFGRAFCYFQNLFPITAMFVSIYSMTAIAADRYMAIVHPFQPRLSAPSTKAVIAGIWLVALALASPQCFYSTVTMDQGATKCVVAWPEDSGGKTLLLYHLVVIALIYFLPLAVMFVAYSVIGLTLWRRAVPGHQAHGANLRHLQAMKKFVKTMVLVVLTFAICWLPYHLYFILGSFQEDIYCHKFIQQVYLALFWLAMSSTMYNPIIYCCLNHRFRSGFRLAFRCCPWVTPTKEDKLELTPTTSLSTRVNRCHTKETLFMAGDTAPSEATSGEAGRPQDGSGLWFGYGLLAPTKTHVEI
Readout name: Ki

compound="CO/N=C(\\COCc1cc(C(F)(F)F)cc(C(F)(F)F)c1)C(CCN1CCC(CN2CCCC(OC(=O)NC(C)C)C2)CC1)c1ccc(Cl)c(Cl)c1 (configuration not stated)" assay_result="33 nM"
compound="CO/N=C(\\COCc1cc(C(F)(F)F)cc(C(F)(F)F)c1)C(CCN1CCC(CNC2(CO)CCCC2)CC1)c1ccc(Cl)c(Cl)c1 (configuration not stated)" assay_result="16 nM"
compound="CO/N=C(\\COCc1cc(C(F)(F)F)cc(C(F)(F)F)c1)C(CCN1CCC(N2CCCCC2CO)CC1)c1ccc(Cl)c(Cl)c1 (configuration not stated)" assay_result="15 nM"
compound="CCOC(=O)C1CCCN(C2CCN(CCC(/C(COCc3cc(C(F)(F)F)cc(C(F)(F)F)c3)=N/OC)c3ccc(Cl)c(Cl)c3)CC2)C1 (configuration not stated)" assay_result="20 nM"
compound="CO/N=C(\\COCc1cc(C(F)(F)F)cc(C(F)(F)F)c1)C(CCN1CCC(N2CCC[C@H]2C(N)=O)CC1)c1ccc(Cl)c(Cl)c1 (some centres not stated)" assay_result="11 nM"
compound="CO/N=C(\\COCc1cc(C(F)(F)F)cc(C(F)(F)F)c1)C(CCN1CCC(N2CCC(O)C2)CC1)c1ccc(Cl)c(Cl)c1 (configuration not stated)" assay_result="16 nM"
compound="CO/N=C(\\COCc1cc(C(F)(F)F)cc(C(F)(F)F)c1)C(CCN1CCC(C(N)=O)CC1)c1ccc(Cl)c(Cl)c1 (configuration not stated)" assay_result="67 nM"
